readout: melting point

| compound | result |
| --- | --- |
| CON=C(C)CC1CC(OC)=C(c2c(C)cc(OC)cc2C)C1=O (centres unmarked) [6-048] | 82 to 85 °C |
| Cc1cc(C)c(C2=C(O)CC(CC(=NOCC(F)(F)F)C3CC3)C2=O)c(C)c1 (centres unmarked) [1-131] | 137 to 138 °C |
| CCC(C)C(CC1CC(O)=C(c2c(C)cc(C)cc2C)C1=O)=NOC (centres unmarked) [1-066] | 154 to 156 °C |
| CCc1cc(Br)cc(C)c1C1=C(O)CC(C(C(=O)OC)C(C)=NOC)C1=O (centres unmarked) [6-002] | 184 to 188 °C |
| CC(CC1CC(O)=C(c2c(C)cc(C)cc2C)C1=O)=NOC(C)(C)C (centres unmarked) [1-053] | 145 to 147 °C |

Quick request: melting point for each listed item, please.
1. CON=C(C)CC1CC(O)=C(c2c(C)cc(OC)cc2C)C1=O (centres unmarked) [6-055]
2. CC(=O)CC1CC(O)=C(c2c(C)cc(C)cc2C)C1=O (centres unmarked) [2-001]
3. CON=CCC1CC(O)=C(c2c(C)cc(C)cc2C)C1=O (centres unmarked) [1-050]
4. CON=C(C)CC1CC(O)=C(c2c(F)cc(Br)cc2OC)C1=O (centres unmarked) [6-096]
5. CON=C(C)CC1CC(O)=C(c2c(C)cc(-c3ccccc3)cc2C)C1=O (centres unmarked) [6-015]

A)
141 to 143 °C
183 to 185 °C
96 to 108 °C
157 to 159 °C
167 to 169 °C
